Molecular target: cynomolgus BK1-receptor (Macaca fascicularis, UniProt Q3BCU0)
Construct: expressed in transfected cells; host or cells: CHO cells (homogenate)
Assay: cynoBK1-receptor binding assay
Conditions: at 10 μgmol/L; CHO cells expressing cynomolgus BK1-receptor, radioligand kallidine (DesArg10,Leu9)
readout_kind: inhibition at 10 µM (%)

| compound | system_name | inhibition at 10 µM (%) |
| --- | --- | --- |
| Nc1cc(C(=O)NC2(C(=O)NCc3ccc(Nc4ccc(F)cc4C(F)(F)F)cn3)CC2)[nH]n1 [(185)] | cynomolgus BK1-receptor (Macaca fascicularis, UniProt Q3BCU0) | 87 |
| Cc1ccc(Nc2ccc(CNC(=O)C3(NC(=O)c4cncnc4)CC3)nc2)c(C(F)(F)F)c1 [(51)] | cynomolgus BK1-receptor (Macaca fascicularis, UniProt Q3BCU0) | 112 |
| O=C(N[C@@]1(C(=O)NCc2ccc(Nc3ccccc3C(F)(F)F)cc2)CCOC1)c1ccnc(Cl)c1 [(61)] | cynomolgus BK1-receptor (Macaca fascicularis, UniProt Q3BCU0) | 97 |
| Cc1ncc(C(=O)NC2(C(=O)NCc3ccc(Nc4ccc(F)cc4C#N)cc3)CC2)cn1 [(181)] | cynomolgus BK1-receptor (Macaca fascicularis, UniProt Q3BCU0) | 99 |

* * *

Target: cynomolgus BK1-receptor (Macaca fascicularis)
Construct: expressed in transfected cells; host or cells: CHO cells (homogenate)
Sequence (Q3BCU0 1-352): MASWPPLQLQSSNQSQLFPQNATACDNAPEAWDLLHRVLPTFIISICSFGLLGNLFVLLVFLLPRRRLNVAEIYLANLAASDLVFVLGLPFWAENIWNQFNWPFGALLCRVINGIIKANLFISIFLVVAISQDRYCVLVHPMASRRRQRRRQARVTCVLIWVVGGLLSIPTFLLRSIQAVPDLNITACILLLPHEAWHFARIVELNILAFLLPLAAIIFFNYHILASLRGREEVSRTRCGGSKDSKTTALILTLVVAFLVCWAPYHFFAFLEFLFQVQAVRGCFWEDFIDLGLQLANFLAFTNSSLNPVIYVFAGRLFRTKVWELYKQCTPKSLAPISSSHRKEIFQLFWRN
Test: cynoBK1-receptor binding assay
Conditions: at 10 μgmol/L; CHO cells expressing cynomolgus BK1-receptor, radioligand kallidine (DesArg10,Leu9)
readout_kind: inhibition at 10 µM (%)

Example results:
| molecule | units_text | inhibition at 10 µM |
| --- | --- | --- |
| O=C(N[C@@]1(C(=O)NCc2ccc(Nc3ccc(F)cc3C(F)(F)F)cn2)CCOC1)c1cncnc1 | % | 94 |
| Nc1cncc(C(=O)NC2(C(=O)NCc3ccc(Nc4ccc(F)cc4C(F)(F)F)cn3)CC2)c1 | % | 106 |
| Cn1ccc(C(=O)N[C@@]2(C(=O)NCc3ccc(Nc4ccccc4C(F)(F)F)cc3)CCOC2)cc1=O | % | 104 |
| COc1ncc(C(=O)NC2(C(=O)NCc3ccc(Nc4ccc(Br)cc4C(F)(F)F)cn3)CC2)cn1 | % | 107 |
| N#Cc1cccc(F)c1Nc1ccc(CNC(=O)C2(NC(=O)c3cncnc3)CC2)cc1 | % | 83 |

1. O=C(NC1(C(=O)NCc2ccc(Nc3ccccc3Cl)cc2)CC1)c1cncnc1
2. Cc1ccccc1N(C)c1ccc(CNC(=O)C2(NC(=O)c3cncnc3)CC2)cc1
3. O=C(Cc1ccccn1)N[C@@]1(C(=O)NCc2ccc(Nc3ccccc3C(F)(F)F)cc2)CCOC1
4. O=C(N[C@@]1(C(=O)NCc2ccc(Nc3ccccc3C(F)(F)F)cc2)CCOC1)c1ccc(=O)[nH]n1
Hey, can you sort those molecules up there by inhibition at 10 µM, smallest first? The labels, placed in the requested order, form the answer.
2, 3, 4, 1

I. O=C(NC1(C(=O)NCc2ccc(Nc3ccc(Br)cc3Cl)cn2)CC1)c1cncnc1
II. CN(C)CCCCC(=O)NC1(C(=O)NCc2ccc(Nc3ccccc3C(F)(F)F)cc2)CC1
Pick one: I or II . Which has the bigger inhibition at 10 µM number? I would appreciate it if you answered with the label of your choice.
I

A. O=C(N[C@@]1(C(=O)NCc2ccc(Nc3ccc(F)cc3C(F)(F)F)cn2)CCOC1)c1cnc2[nH]cnc2c1
B. O=C(N[C@@]1(C(=O)NCc2ccc(Nc3ccccc3C(F)(F)F)cc2)CCOC1)c1cccc(Cl)n1
Please let me know which one, A or B , has a lower measured inhibition at 10 µM value. Which one? Tell me its label.
B
(B: 63%, A: 91%)
